// values below are reported self-cleavage kobs at 2500 uM GlcN6P
B1: glmS ribozyme (parent)
chain: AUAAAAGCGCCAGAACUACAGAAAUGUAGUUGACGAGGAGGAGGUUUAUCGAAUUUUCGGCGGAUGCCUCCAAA

variants of: B1; test: self-cleavage kobs at 2500 uM GlcN6P; higher = faster cleavage; RNA array; settings: with glucosamine-6-phosphate
This sample holds only a part of the variants without activity.
Number in s⁻¹, nothing else.

Exercise: I have this variant here, AUAAAAGCGCCAGAACUACAGAAAUGUAGUUGACGAGGAGGAGAUUUAUCGAAAUUUCGGCGGAUGCCUCCAAA , and I need its recorded self-cleavage kobs at 2500 uM GlcN6P.
Key: 0.00051

Exercise: Now consider AUCAAAGCGCCAGAACUACAGAAAUGUAGUUGACGAGGAGGAGGAUUAUCGAAUUUUCGGCGGAAGCCUCCAAA and answer again.
Key: 0.00657

Exercise: Would you kindly repeat that for AUAAAAGCGCCACGACUACAGAAAUGUAGUUGACGAGGAGGAGGUUUAUCGAAUGUUCUGCGGAUGCGUCCAAA ?
Key: 9.91e-05
